measuredTarget: HLA-DRB3*0101 (human)
methodNotes: competition binding
valueType: pIC50
Answers are plain numbers, as −log10 of the molar value.

Noted for TQFVRFDSDAASQRM [peptide p7 (residues 31-45 of HLA-A2)] : its pIC50 reads 6.34
